# Experimental target: T1, human transferrin receptor (hTfR) fused to EGFP, on CHO cells (human, UniProt P02786 1-760)
# T1 construct: whole, on cells; also called human TfR; CHO-hTfR-EGFP; not shown: EGFP from pEGFP-C1 vector, fused to the N-terminal (intracellular) end of hTfR
# T1 sequence (P02786 whole entry, the tested form may be a part): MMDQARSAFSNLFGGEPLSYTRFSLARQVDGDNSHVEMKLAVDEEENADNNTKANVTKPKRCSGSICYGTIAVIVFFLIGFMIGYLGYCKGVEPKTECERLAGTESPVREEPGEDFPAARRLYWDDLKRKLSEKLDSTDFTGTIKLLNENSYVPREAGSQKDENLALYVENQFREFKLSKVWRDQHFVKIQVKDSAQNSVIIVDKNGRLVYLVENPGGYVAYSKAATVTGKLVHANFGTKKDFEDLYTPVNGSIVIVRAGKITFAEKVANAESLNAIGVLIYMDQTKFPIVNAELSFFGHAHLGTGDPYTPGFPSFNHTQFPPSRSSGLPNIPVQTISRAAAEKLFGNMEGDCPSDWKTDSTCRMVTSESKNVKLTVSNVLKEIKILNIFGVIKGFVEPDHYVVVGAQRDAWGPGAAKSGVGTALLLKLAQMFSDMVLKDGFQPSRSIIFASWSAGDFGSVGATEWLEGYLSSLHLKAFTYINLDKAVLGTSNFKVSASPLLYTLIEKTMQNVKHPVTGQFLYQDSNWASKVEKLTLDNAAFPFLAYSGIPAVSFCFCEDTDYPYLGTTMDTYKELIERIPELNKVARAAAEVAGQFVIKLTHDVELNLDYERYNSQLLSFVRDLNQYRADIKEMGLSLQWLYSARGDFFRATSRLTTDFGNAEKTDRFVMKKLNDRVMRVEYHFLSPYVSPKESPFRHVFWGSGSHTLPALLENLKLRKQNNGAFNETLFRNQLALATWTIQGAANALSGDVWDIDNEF
# Run description: apparent Kd, flow cytometry, CHO cells
Each entry below carries its reported Kd.
Quick note: give the figure in nM, leave out the unit.

Input line: # Kd lookup, item VHH A7 (C5^V7) (VHH) VHH: EVQLVESGGGVVQPGGSLKLSCVASGTDFSINFIRWYRQAPGKQREFVAGFTATGNTNYADSMKGRFTISRDNTKNAVYLQIDSLKPEDTAVYYCYMADKWGQGTQVTVSS
Output line: 255

Input line: Next binder: VHH A12 (C5^V12) (VHH) VHH: EVQLVESGGGVVQPGGSLKLSCVASGTDFSINFIRWYRQAPGKQREFVAGITATGNTNYADSMKGRFTISRDNTKNAVYLQIDSLKPEDTAVYYCYMLDKWGQGTQVTVSS
Output line: 363
